- Tested on: YAPC (Pancreatic Carcinoma)
- ASSAY DETAILS: combination Emax (second highest fraction inhibited in the dose matrix, 72 h); higher = more inhibition; extreme values may be limits of the assay

# COMPOUND, combination Emax
rows = [
    ("C[C@@H](Oc1cc(-c2cnn(C3CCNCC3)c2)cnc1N)c1c(Cl)ccc(F)c1Cl [Crizotinib] + CC1=C(C(=CC=C1)Cl)NC(=O)C2=CN=C(S2)NC3=CC(=NC(=N3)C)N4CCN(CC4)CCO [Dasatinib] (first compound max 10 µM, 7x7, partner max 2 µM)", 0.694),
    ("Cc1c2c(nn1C)CSCc1cc(n(C)n1)CSc1cc(c3ccccc3c1)OCCCc1c(C(=O)O)n(C)c3c-2c(Cl)ccc13 [AZD5991] + CC1(C)CCC(CN2CCN(c3ccc(C(=O)NS(=O)(=O)c4ccc(NCC5CCOCC5)c([N+](=O)[O-])c4)c(Oc4cnc5[nH]ccc5c4)c3)CC2)=C(c2ccc(Cl)cc2)C1 [Venetoclax] (first compound max 1 µM, 7x7, partner max 1 µM)", 0.146),
    ("Cc1cc2ncnn2cc1Nc1ncc2c(n1)n(C1CCOCC1)c(=O)n2C [AZD7648] + C[C@@H]1COCCN1C2=NC(=NC(=C2)C3(CC3)[S@](=N)(=O)C)C4=C5C=CNC5=NC=C4 [AZD6738] (first compound max 10 µM, 7x7, partner max 10 µM)", 0.335),
]

---

- Tested on: SW1573 (Lung Adenocarcinoma)
- ASSAY DETAILS: combination Emax (second highest fraction inhibited in the dose matrix, 72 h); higher = more inhibition; extreme values may be limits of the assay
Recorded combination Emax for the following compounds

# COMPOUND, combination Emax
measured = [
    ("C=CCn1c(=O)c2cnc(Nc3ccc(N4CCN(C)CC4)cc3)nc2n1-c1cccc(C(C)(C)O)n1 [AZD1775] + C1CN(CCC1(C(=O)N[C@@H](CCO)C2=CC=C(C=C2)Cl)N)C3=NC=NC4=C3C=CN4 [Capivasertib] (first compound max 3 µM, partner max 3 µM)", 0.572),
    ("CC1(C)CCC(CN2CCN(c3ccc(C(=O)NS(=O)(=O)c4ccc(NCC5CCOCC5)c([N+](=O)[O-])c4)c(Oc4cnc5[nH]ccc5c4)c3)CC2)=C(c2ccc(Cl)cc2)C1 [Venetoclax] + C[C@@H](Nc1cc(F)cc(F)c1)c1cc(C(=O)N(C)C)cc2c(=O)cc(N3CCOCC3)oc12 [AZD8186] (first compound max 1 µM, 7x7, partner max 3 µM)", 0.136),
    ("NC1(C(=O)N[C@@H](CCO)c2ccc(Cl)cc2)CCN(c2ncnc3[nH]ccc23)CC1 [Capivasertib] + C[C@@H]1COCCN1C2=NC(=NC(=C2)C3(CC3)[S@](=N)(=O)C)C4=C5C=CNC5=NC=C4 [AZD6738] (first compound max 10 µM, 7x7, partner max 10 µM)", 0.461),
]

---

- Test system: SNU-16 (Gastric Carcinoma)
- ASSAY DETAILS: combination Emax (second highest fraction inhibited in the dose matrix, 72 h); higher = more inhibition; extreme values may be limits of the assay
I would appreciate it if you labelled entries Condition met when combination Emax is 0.5 or higher, otherwise Condition not met.

# MOLECULE, LABEL VALUE
records = [
    ("CC1(C)CCC(CN2CCN(c3ccc(C(=O)NS(=O)(=O)c4ccc(NCC5CCOCC5)c([N+](=O)[O-])c4)c(Oc4cnc5[nH]ccc5c4)c3)CC2)=C(c2ccc(Cl)cc2)C1 [Venetoclax] + CN(C)CCCOc1ccc(-c2ccc3ncc4c(c3c2)n(C2CCOCC2)c(=O)n4C)cn1 [AZD0156] (first compound max 1 µM, 7x7, partner max 1 µM)", "Condition not met"),
    ("C[C@@H](Oc1cc(-c2cnn(C3CCNCC3)c2)cnc1N)c1c(Cl)ccc(F)c1Cl [Crizotinib] + Cn1cnc2c(F)c(Nc3ccc(Br)cc3Cl)c(C(=O)NOCCO)cc21 [Selumetinib] (first compound max 10 µM, 7x7, partner max 10 µM)", "Condition met"),
    ("COc1cc2ncnc(Nc3ccc(F)c(Cl)c3)c2cc1OCCCN1CCOCC1 [Gefitinib] + CC(C)n1c(=O)n(C)c2cnc3cc(F)c(-c4ccc(OCCCN5CCCCC5)nc4)cc3c21 [AZD1390] (first compound max 10 µM, 7x7, partner max 0.3 µM)", "Condition not met"),
    ("C[C@@H](Nc1cc(F)cc(F)c1)c1cc(C(=O)N(C)C)cc2c(=O)cc(N3CCOCC3)oc12 [AZD8186] + C1CN(CCC1(C(=O)N[C@@H](CCO)C2=CC=C(C=C2)Cl)N)C3=NC=NC4=C3C=CN4 [AZD5363] (first compound max 10 µM, 7x7, partner max 10 µM)", "Condition not met"),
    ("CC1(C)CCC(CN2CCN(c3ccc(C(=O)NS(=O)(=O)c4ccc(NCC5CCOCC5)c([N+](=O)[O-])c4)c(Oc4cnc5[nH]ccc5c4)c3)CC2)=C(c2ccc(Cl)cc2)C1 [Venetoclax] + CS(=O)(=O)CCNCc1ccc(-c2ccc3ncnc(Nc4ccc(OCc5cccc(F)c5)c(Cl)c4)c3c2)o1 [Lapatinib] (first compound max 1 µM, 7x7, partner max 10 µM)", "Condition not met"),
    ("Cc1nc(Nc2ncc(C(=O)Nc3c(C)cccc3Cl)s2)cc(N2CCN(CCO)CC2)n1 [Dasatinib] + CC(=O)Nc1cccc(-n2c(=O)n(C3CC3)c(=O)c3c(Nc4ccc(I)cc4F)n(C)c(=O)c(C)c32)c1 [Trametinib] (first compound max 2 µM, 7x7, partner max 1 µM)", "Condition met"),
    ("COc1cccc(OCCCN)c1-c1cc(Nc2cnc(C#N)cn2)n[nH]1 [Prexasertib] + CN(C)CCCOc1ccc(-c2ccc3ncc4c(c3c2)n(C2CCOCC2)c(=O)n4C)cn1 [AZD0156] (first compound max 1 µM, 7x7, partner max 1 µM)", "Condition met"),
]
